- System: Pityrosporum ovale
- test.method.notes: MIC and PI determination on Abbe's medium agar slants, dilution series
- Assay type: cell-based
- cond: Malassezia furfur, 72 h, 28° C., reading after 3 days, read-out: PI (partial inhibition, growth reduced by at least 90% compared to the control), reading after 3 days
Counter-ions that a name gives are not always drawn.
Each record is given Yes if its reported IC90 is strictly below 4 µg/mL. Records at or above 4 µg/mL are given No.

molecule | system | discrete.label
COC(=O)C(c1ccccc1)(c1ccccc1)n1ccnc1 | Pityrosporum ovale | Yes
C#CC(c1ccccc1)(c1ccccc1)n1ccnc1 | Pityrosporum ovale | Yes
CC1(n2ccnc2)c2ccccc2CCc2ccccc21 | Pityrosporum ovale | No

Ask | In the record for CC(C)(C)C(=O)C(Cn1ccnc1)Oc1ccc(Cl)cc1Cl (stereo not shown) [Example 5, hydrochloride] , is IC90 less than 4 µg/mL?
Reply | Yes

Ask | Next up: Clc1ccccc1C(c1ccccc1)(c1ccccc1)n1ccnc1
Reply | No

Ask | Next up: CC(C)(C)C(O)C(Oc1ccc(Cl)cc1Cl)(c1ccccc1)n1ccnc1 (stereo not shown)
Reply | No

Ask | Next up: CC(C)(C)C(O)C(Oc1ccc(-c2ccccc2)cc1)n1ccnc1 (stereo not shown)
Reply | Yes

Ask | Next up: CC(C)(C)C(=O)C(Cn1ccnc1)Oc1ccc(-c2ccccc2)cc1 (stereo not shown)
Reply | Yes

---

- Tested on: Pityrosporum ovale
- test.method.notes: MIC and PI determination on Abbe's medium agar slants, dilution series
- Assay type: cell-based
- cond: Malassezia furfur, 120 h, 28° C., reading after 5 days, read-out: PI (partial inhibition, growth reduced by at least 90% compared to the control), reading after 5 days
What IC90 was measured for each of the following?
Answers are plain numbers, in µg/mL.

molecule | system | recorded.measurement
CC(=O)C(c1ccccc1)(c1ccccc1)n1ccnc1 [Example 15] | Pityrosporum ovale | 4

Dear reader, for each entry below, please note its IC90.
1. Brc1cccc(C(c2ccccc2)(n2ccnc2)n2ccnc2)c1 [Example 20]
2. Cc1ccccc1C1(n2ccnc2)c2ccccc2-c2ccccc21 [Example 9]

Reply |
64
4

---

- Tested on: Pityrosporum ovale
- test.method.notes: MIC and PI determination on Abbe's medium agar slants, dilution series
- Assay type: cell-based
- cond: Malassezia furfur, 120 h, 28° C., reading after 5 days, read-out: PI (partial inhibition, growth reduced by at least 90% compared to the control), reading after 5 days
Each record is given yes if its reported IC90 is strictly below 8 µg/mL. Records at or above 8 µg/mL are given no.

compound | discrete.label
Clc1ccc(C(c2ccccc2)(c2ccccc2)n2ccnc2)cc1 [Example 16] | no
CC(C)(C)C(O)C(Oc1ccc(Cl)cc1Cl)(c1ccccc1)n1ccnc1 (stereo not shown) [Example 19] | no
CCC(c1ccccc1)(c1ccccc1)n1ccnc1 [Example 14] | yes
Clc1cccc(C(c2ccccc2)(n2ccnc2)n2ccnc2)c1 [Example 17] | no
C#CC(c1ccccc1)(c1ccccc1)n1ccnc1 [Example 10] | yes
COC(=O)C(c1ccccc1)(c1ccccc1)n1ccnc1 [Example 11] | yes

Ask | In the record for CC(C)(C)C(=O)C(Cn1ccnc1)Oc1ccc(Cl)cc1 (stereo not shown) [Example 8] , is IC90 less than 8 µg/mL?
Reply | yes

Ask | Next up: CC1(n2ccnc2)c2ccccc2CCc2ccccc21 [Example 18]
Reply | no

Ask | Next up: CC(C)(C)C(O)C(Oc1ccc(-c2ccccc2)cc1)n1ccnc1 (stereo not shown) [Example 7]
Reply | yes

---

- Test system: Pityrosporum ovale
- test.method.notes: MIC and PI determination on Abbe's medium agar slants, dilution series
- Format: cell-based
- cond: Malassezia furfur, 72 h, 28° C., reading after 3 days, read-out: PI (partial inhibition, growth reduced by at least 90% compared to the control), reading after 3 days
What IC90 was measured for each of the following?
Give bare numbers, in µg/mL.

Some entries whose results are on file:
compound | readout.units | IC90
CC(C)(C)C(=O)C(Cn1ccnc1)Oc1ccc(Cl)cc1 (centres unmarked) | µg/mL | 2
Brc1cccc(C(c2ccccc2)(n2ccnc2)n2ccnc2)c1 | µg/mL | 64
Clc1cccc(C(c2ccccc2)(n2ccnc2)n2ccnc2)c1 | µg/mL | 32
Cc1ccccc1C1(n2ccnc2)c2ccccc2-c2ccccc21 | µg/mL | 2

Ask | # IC90 lookup, item Clc1ccc(C(c2ccccc2)(c2ccccc2)n2ccnc2)cc1
Reply | 16
